- target desc: Beta Secretase enzyme (BACE) (Homo sapiens (Human), UniProt P56817)
- Sequence (P56817 46-501): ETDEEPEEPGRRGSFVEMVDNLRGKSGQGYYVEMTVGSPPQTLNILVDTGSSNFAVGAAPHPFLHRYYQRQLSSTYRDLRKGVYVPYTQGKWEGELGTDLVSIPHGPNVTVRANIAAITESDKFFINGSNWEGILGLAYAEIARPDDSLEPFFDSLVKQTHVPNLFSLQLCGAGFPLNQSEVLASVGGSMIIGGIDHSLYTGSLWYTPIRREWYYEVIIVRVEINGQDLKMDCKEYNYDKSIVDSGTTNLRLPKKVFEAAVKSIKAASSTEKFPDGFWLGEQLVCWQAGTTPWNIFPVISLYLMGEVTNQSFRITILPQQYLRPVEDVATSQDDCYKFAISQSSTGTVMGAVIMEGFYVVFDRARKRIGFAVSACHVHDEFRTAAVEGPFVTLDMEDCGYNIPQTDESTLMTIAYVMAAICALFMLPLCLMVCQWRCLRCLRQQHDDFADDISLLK
- protocol details: In vitro enzymatic BACE FRET assay
- Format: biochemical
- condition summary: read-out: BACE1 Enzyme assay IC50
Catalogue of IC50 values

In the examples that follow, each entry is paired with its recorded IC50.
{"compound": "Cc1cc(Cl)cnc1C(=O)Nc1ccc(F)c([C@@]2(C(F)F)N=C(N)O[C@@H]3C[C@@H]32)c1", "IC50": "22.5 nM"}
{"compound": "NC1=N[C@@](c2cc(NC(=O)c3ccc(C#CC4CC4)cn3)ccc2F)(C(F)F)[C@H]2C[C@H]2O1", "IC50": "23.7 nM"}
{"compound": "NC1=N[C@@](c2cc(NC(=O)c3cnc(OCc4cocn4)cn3)ccc2Cl)(C(F)F)[C@H]2C[C@H]2O1", "IC50": "35.6 nM"}

Lab book: IC50 of `COc1cnc(C(=O)Nc2ccc(Cl)c([C@@]3(C(F)F)N=C(N)O[C@@H]4C[C@@H]43)c2)c(C)c1` noted as 97.1 nM

response.value for NC1=N[C@@](c2cc(NC(=O)c3ccc(Cl)cn3)ccc2Cl)(C(F)F)[C@H]2C[C@H]2O1 [Example 99] (field: IC50) = 22.7 nM
